Tested on: CEM cells HIV-1 protection, formazan growth assay
Assay: NCI AIDS Antiviral Assay;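 active = compounds giving half or more protection of infected cells from virus-caused growth loss, again on retest; inactive = the rest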
Outcomes: 1.0 for active, 0.0 for inactive

[[record]]
compound = "CC(C)c1cc(=O)oc2c3c(ccc12)OC(C)(C)[C@H](OC(=O)C12CCC(C)(C(=O)O1)C2(C)C)[C@@H]3OC(=O)C12CCC(C)(C(=O)O1)C2(C)C (some centres undefined)"
qualitativelabel = 1.0

[[record]]
compound = "COC(=O)C(=O)C(C(=O)C(=O)Nc1ccc(Cl)cc1Cl)c1nc2ccc(Cl)cc2[nH]c1=O (centres undefined)"
qualitativelabel = 0.0

[[record]]
compound = "CCC(=O)NC(OCC1(CC)COC1)(C(F)(F)F)C(F)(F)F"
qualitativelabel = 0.0

[[record]]
compound = "CC(C)c1cc2c(cc1S(=O)(=O)O)[C@@]1(C)CCC[C@@](C)(C(=O)O)C1CC2 (some centres undefined)"
qualitativelabel = 0.0

[[record]]
compound = "Cc1ccc([N+](=O)[O-])cc1NC(=O)C(=O)C1CCC2=C(Sc3ccccc3N2)C1=O (centres undefined)"
qualitativelabel = 0.0

[[record]]
compound = "COc1cc(C2SC(N)=Nc3c2c(C)nn3C(=O)c2ccccc2O)ccc1O (centres undefined)"
qualitativelabel = 0.0

[[record]]
compound = "CCOC(=O)C(O)(C(=O)OCC)c1cc(C(C)(C)C)c(O)c(C(C)(C)C)c1"
qualitativelabel = 0.0

[[record]]
compound = "COC(=O)C(CC1CC(=O)N(CCc2c[nH]c3ccccc23)C1)C(=O)OC (centres undefined)"
qualitativelabel = 0.0

[[record]]
compound = "Nn1nc2ccccc2n1"
qualitativelabel = 0.0

[[record]]
compound = "CC(C)=CCOc1cc(O)c2c(c1)C(=O)c1cc(C)cc(O)c1C2=O"
qualitativelabel = 0.0

[[record]]
compound = "COc1ccc(C2CCC(=O)CC2C(=O)O)cc1 (centres undefined)"
qualitativelabel = 0.0

[[record]]
compound = "Oc1cc2ccccc2c2sc(-c3ccccc3)c(-c3ccccc3)[n+]12"
qualitativelabel = 0.0

[[record]]
compound = "COc1ccc(N2C(=O)C3c4[nH]c5ccc(OCc6ccccc6)cc5c4C4CCC(C(C)C)CC4C3C2=O)cc1 (centres undefined)"
qualitativelabel = 0.0

[[record]]
compound = "Cc1ccc(CC2(C(=O)O)Cc3ccc(C)cc3C2)cc1 (centres undefined)"
qualitativelabel = 0.0

[[record]]
compound = "NC(=O)C(NN=C1c2ccccc2-c2ccccc21)(c1ccccc1)c1ccccc1"
qualitativelabel = 0.0

[[record]]
compound = "CC(C)(C)OC(=O)NCC(C#N)CNC(=O)OC(C)(C)C"
qualitativelabel = 0.0

[[record]]
compound = "CC(C)CCC[C@@H](C)[C@H]1CCC2[C@@H]3CC[C@H]4C[C@@H](CCC=C(c5cc(Cl)c(OCc6ccc(-c7ccc(C(=O)O)cc7)cc6)c(C(=O)O)c5)c5cc(Cl)c(OCc6ccc(-c7ccc(C(=O)O)cc7)cc6)c(C(=O)O)c5)CC[C@]4(C)[C@H]3CC[C@@]21C (some centres undefined)"
qualitativelabel = 0.0

[[record]]
compound = "Cc1ccccc1C1(Br)C(=O)c2ccccc2C1=O"
qualitativelabel = 0.0

[[record]]
compound = "O=C(Nc1nccs1)c1cc(C2=CC=CC([N+](=O)[O-])C=C2)nc(=S)[nH]1 (centres undefined)"
qualitativelabel = 0.0

